Tested on: NCI-H2087
protocol.description: Induction of apoptosis in human NCI-H2087 cells at 1 to 10 uM incubated for 24 hrs by Annexin V/Propidium iodide staining based analysis
Format: functional, cell-based
condition.label: dose 1-10 µM
Activity calls are given as the source filed them. The rule behind the calls is not given here.
metric: Activity

Note to self: Activity recorded for Cc1nn(C)cc1Nc1ncc2scc(-c3cccc(NC(=O)[C@@H](C)N4CCN(C)CC4)c3)c2n1 was Active

Note to self: Activity recorded for COc1nn(C)cc1Nc1ncc2scc(-c3cccc(NC(=O)[C@@H](C)N4CCN(C)CC4)c3)c2n1 was Active

Note to self: Activity recorded for COc1nn(C)cc1Nc1ncc2scc(-c3cccc(NC(=O)[C@@H](C)N4CCN(CCO)CC4)c3)c2n1 was Active

Note to self: Activity recorded for COc1nn(C)cc1Nc1nccc(-c2c[nH]c3c(NC(=O)[C@@H](C)N4CCN(C)CC4)cccc23)n1 was Active

Values compiled from ChEMBL document CHEMBL6103581.
